# STUDY_TARGET: T1, PSMA Fab (006 PSMA Fab) (biotinylated (site not stated))
# T1 construct: Captured as biotinylated PSMA Fab on neutravidin coated plates in the phage ELISA; also called Anti-PSMA Fab; anti-PSMA Fab
# PROCEDURE_DETAILS: phage ELISA: clonal phage on biotinylated PSMA Fab captured on neutravidin plate, anti-M13 HRP detection
Catalogue of Phage binding ELISA signal, Anti-PSMA Fab readings, one per entry.
MEASURED_PARAMETER: Phage binding ELISA signal, Anti-PSMA Fab

BINDER: YGVQCVPSWMCQGF [Phage-3715]
TEST_RESULT: 1.42

BINDER: SEALCVPKWMCHGF [Phage-3719]
TEST_RESULT: 1.42

BINDER: EEKLCKPAWMCEWF [Phage-3724]
TEST_RESULT: 1.41

BINDER: TLFACVPAWMCDGF [Phage-3726]
TEST_RESULT: 1.41

BINDER: ESPICKPSWMCSGL [Phage-3718]
TEST_RESULT: 1.42

BINDER: PYAVCVPKWMCSGF [Phage-3723]
TEST_RESULT: 1.41

BINDER: IERMCMPPWMCSAL [Phage-3716]
TEST_RESULT: 1.42

BINDER: MEWHCKPKWMCEGF [Phage-3717]
TEST_RESULT: 1.42

BINDER: AYMKCSPAWMCEGF [Phage-3722]
TEST_RESULT: 1.41

BINDER: ESRLCVPTWMCTWL [Phage-3728]
TEST_RESULT: 1.41

BINDER: GENWCVPQWMCDGF [Phage-3721]
TEST_RESULT: 1.41

BINDER: EPRACVPFWMCLGF [Phage-3720]
TEST_RESULT: 1.42

BINDER: IDRHCVPRWMCDGL [Phage-3727]
TEST_RESULT: 1.41

BINDER: DVLMCTPRWMCDGF [Phage-3725]
TEST_RESULT: 1.41
